A collection of compounds and their measured EC50 at 48 h
- test: Cytotoxicity (cell count, cellular morphology) in the Torsin1a assay cell line
- Type: cell-based, human
- assay_conditions: human, Flp-In T-REx 293 cells inducibly expressing delta-E Torsin1a; Table 5; read-out: ΔE TorsinA Mislocalization Assay Cytotoxicity EC50
Write the value in µM as a bare number.

Examples with their reported EC50 at 48 h follow.
# structure_as_smiles, observation_type, result_number
rows = [
    ("Cc1cccc(C)c1OCC(=O)N[C@@H](Cc1ccccc1)[C@@H](O)C[C@H](Cc1ccccc1)NC(=O)[C@H](C(C)C)N1CCCNC1=O", "EC50 at 48 h", 37.2),
    ("CC(C)(C)NC(=O)[C@@H]1CN(Cc2cccnc2)CCN1C[C@@H](O)C[C@@H](Cc1ccccc1)C(=O)N[C@H]1c2ccccc2C[C@H]1O", "EC50 at 48 h", 35.2),
    ("CC(C)(C)NC(=O)[C@@H]1C[C@@H]2CCCC[C@@H]2CN1C[C@@H](O)[C@H](Cc1ccccc1)NC(=O)[C@H](CC(N)=O)NC(=O)c1ccc2ccccc2n1", "EC50 at 48 h", 23.6),
]

# evaluate next
Asked: What does the record list as EC50 at 48 h for Cc1c(O)cccc1C(=O)N[C@@H](CSc1ccccc1)[C@H](O)CN1C[C@H]2CCCC[C@H]2C[C@H]1C(=O)NC(C)(C)C ?
Given back: 6.05

Reference source: patent US11285142B2
